# target_of_assay: FLK-1 receptor (Mus musculus)
# Construct: expressed in transfected cells; host or cells: NIH3T3 C7#3
# protocol_summary: FLK-1 ELISA (kinase activity of the FLK-1 receptor in FLK-1/NIH3T3 cells, VEGF stimulated)
# Format: cell-based
Listed compounds paired with reported Fik Kinase %Inhibition
# unit: % | format: bare number

Please review the following examples before continuing.
1) O=C1Nc2ccc(S(=O)(=O)N3CCOCC3)cc2C1=Cc1ccccc1Sc1ccc(Cl)cc1 = 21.8
2) O=C1Nc2ccc(S(=O)(=O)N3CCOCC3)cc2C1=Cc1cc(O)c(O)c(Br)c1 = 12.3
3) O=C1Nc2ccc(I)cc2C1=Cc1cc2c([nH]1)CCCC2 = 45.9

Endpoint output: Fik Kinase %Inhibition of CC(=O)n1cc(C=C2C(=O)Nc3ccc(Br)c(C)c32)c2ccccc21 . Value?
11.4

# Fik Kinase %Inhibition lookup, item O=C1Nc2ccc(S(=O)(=O)Nc3ccc(C(F)(F)F)cc3)cc2C1=Cc1coc2ccc(Cl)cc2c1=O
11.1

Consider the compound shown here: Cc1cc(C=C2C(=O)Nc3ccc(CCCl)cc32)[nH]n1 What is its recorded Fik Kinase %Inhibition?
-18.3

# get_value(readout='Fik Kinase %Inhibition', item= COc1c(C(C)C)cc(C=C2C(=O)Nc3ccc(CCCl)cc32)cc1C(C)C )
0.8

May I ask what Fik Kinase %Inhibition has been recorded for Cc1c(Br)ccc2c1C(=Cc1ccc(OCc3ccccc3)c(C(C)(C)C)c1)C(=O)N2 ?
11.8

* * *

# Tested on: MET
# protocol_summary: MET biochemical kinase assay
# Parameters: species or system human; concentration or dose not given beside the values
property_name: Met Kinase % Inhibition (%)
Please reply with the bare figure in % and do not write the unit itself.

1) Cn1cc(Cl)c(C=C2C(=O)Nc3ccc(S(=O)(=O)Nc4ccc(C(F)(F)F)cc4)cc32)n1 [10721/E03] = 12.3
2) O=C1Nc2ccc(S(=O)(=O)Nc3ccc(C(F)(F)F)cc3)cc2C1=Cc1ccc([N+](=O)[O-])s1 [10722/E04] = 52.6
3) COc1cc(OC)c(OC)cc1C=C1C(=O)Nc2c(Br)cc(Br)cc21 [10730/A03] = 62.3

Consider the record given below.
Can you share its Met Kinase % Inhibition? I mean this molecule: Cn1c(C=C2C(=O)Nc3c(Br)cc(Br)cc32)nc2ccccc21 [10721/A02]
41.1

* * *

# target_of_assay: PDGF-R (Homo sapiens, UniProt P09619)
# Sequence (P09619 33-1106, species assumed): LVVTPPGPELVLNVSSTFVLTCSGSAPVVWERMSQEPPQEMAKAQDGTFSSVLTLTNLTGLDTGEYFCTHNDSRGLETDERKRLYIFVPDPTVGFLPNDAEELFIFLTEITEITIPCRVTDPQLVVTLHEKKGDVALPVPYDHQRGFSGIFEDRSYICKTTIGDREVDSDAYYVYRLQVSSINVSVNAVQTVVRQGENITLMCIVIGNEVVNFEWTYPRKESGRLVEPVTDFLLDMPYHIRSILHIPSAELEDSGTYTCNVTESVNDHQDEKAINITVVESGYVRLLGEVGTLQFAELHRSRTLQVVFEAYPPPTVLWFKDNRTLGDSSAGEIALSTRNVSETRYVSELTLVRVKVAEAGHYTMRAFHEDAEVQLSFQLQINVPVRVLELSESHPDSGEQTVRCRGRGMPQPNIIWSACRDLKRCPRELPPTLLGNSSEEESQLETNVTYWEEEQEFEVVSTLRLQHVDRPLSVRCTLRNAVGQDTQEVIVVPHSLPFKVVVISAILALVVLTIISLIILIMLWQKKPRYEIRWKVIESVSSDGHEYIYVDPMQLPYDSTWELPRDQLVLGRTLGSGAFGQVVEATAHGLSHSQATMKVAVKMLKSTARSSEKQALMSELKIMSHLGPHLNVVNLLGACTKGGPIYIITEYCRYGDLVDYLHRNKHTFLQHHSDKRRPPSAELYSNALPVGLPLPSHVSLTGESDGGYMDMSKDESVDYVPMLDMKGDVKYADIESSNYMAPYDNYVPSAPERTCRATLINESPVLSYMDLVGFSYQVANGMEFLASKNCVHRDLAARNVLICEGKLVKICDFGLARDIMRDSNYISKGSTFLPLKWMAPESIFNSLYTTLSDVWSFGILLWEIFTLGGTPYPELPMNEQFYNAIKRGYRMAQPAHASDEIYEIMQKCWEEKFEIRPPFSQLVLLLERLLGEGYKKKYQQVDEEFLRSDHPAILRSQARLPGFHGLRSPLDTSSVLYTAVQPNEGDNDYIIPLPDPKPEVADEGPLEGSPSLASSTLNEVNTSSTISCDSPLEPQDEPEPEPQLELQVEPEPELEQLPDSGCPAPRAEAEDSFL
# protocol_summary: PDGF-R ELISA
# Format: cell-based
Decision: PDGF Kinase %Inhibition beneath 10% gives Criterion met; PDGF Kinase %Inhibition meeting or exceeding 10% gives Criterion not met.

1) CC(C)(C)c1cc(C=C2C(=O)Nc3c(Br)cc(Br)cc32)cc(C(C)(C)C)c1OCc1ccccc1 = Criterion met
2) N#Cc1ccc(C=C2C(=O)Nc3ccc(I)cc32)cc1 = Criterion not met
3) Cc1c(Br)ccc2c1C(=Cc1ccc(C(C)(C)C)cc1)C(=O)N2 = Criterion not met

Consider O=C1Nc2ccc(S(=O)(=O)Nc3ccc(C(F)(F)F)cc3)cc2C1=Cc1ccncc1 . Does its PDGF Kinase %Inhibition lie strictly below 10%?
Criterion met

Identify whether the compound C=C(C)C1CC=C(C=C2C(=O)Nc3ccc(Br)c(C)c32)CC1 (centres unmarked) records PDGF Kinase %Inhibition below 10%.
Criterion not met

Determine whether this compound shows PDGF Kinase %Inhibition lower than 10% (ties excluded): Cc1c(Br)ccc2c1C(=Cc1cc(C(C)(C)C)cc(C(C)(C)C)c1O)C(=O)N2
Criterion met

Confirm or reject: PDGF Kinase %Inhibition of O=C1Nc2ccc(S(=O)(=O)Nc3ccc(C(F)(F)F)cc3)cc2C1=Cc1coc2ccc([N+](=O)[O-])cc2c1=O lies strictly below 10%
Criterion met

* * *

# Tested on: MET
# protocol_summary: MET biochemical kinase assay
# Parameters: species or system human; concentration or dose not given beside the values
property_name: Met Kinase % Inhibition (%)
A number alone suffices; assume %.

Consider the following illustrative entries.
1. O=C1Nc2c(Br)cc(Br)cc2C1=Cc1ccc([N+](=O)[O-])s1 = 51.4
2. CCOC(=O)CCc1c(C(=O)OCC)[nH]c(C=C2C(=O)Nc3ccc(S(=O)(=O)Nc4ccc(C(F)(F)F)cc4)cc32)c1CC(=O)OCC = 32.2
3. Cn1cccc1C=C1C(=O)Nc2c(Br)cc(Br)cc21 = 37.4

Next item in the queue.
Met Kinase % Inhibition lookup needed for Cc1c(Br)ccc2c1C(=Cc1nn(C)cc1Cl)C(=O)N2 , thanks.
6.2

* * *

# Test system: MET
# protocol_summary: MET biochemical kinase assay
# Set-up: species or system human; concentration or dose not given beside the values
property_name: Met Kinase % Inhibition (%)
# value in %; strip the unit string

1) CCOc1cccc(C=C2C(=O)Nc3ccc(I)cc32)c1O [10734/B02] = 61.9
2) CC(C)c1cc(C=C2C(=O)Nc3ccc(S(=O)(=O)Nc4ccc(C(F)(F)F)cc4)cc32)cc(C(C)C)c1O [10724/E06] = 25.8
3) COc1cccc(O)c1C=C1C(=O)Nc2ccc(I)cc21 [10717/B10] = 56.1
4) COc1cccc(O)c1C=C1C(=O)Nc2ccc(CCCl)cc21 [10717/G10] = 30.9
5) COc1c(C(C)(C)C)cc(C=C2C(=O)Nc3c(Br)cc(Br)cc32)cc1C(C)(C)C [10733/A04] = 24.0

// fetch MET Met Kinase % Inhibition for COc1c(O)ccc(C=C2C(=O)Nc3ccc(I)cc32)c1[N+](=O)[O-] [10733/B11]
36.6

What value of Met Kinase % Inhibition on MET does O=C1Nc2ccc(CCCl)cc2C1=Cc1c[nH]c2ccccc12 [10717/G06] have?
34.0

What reported Met Kinase % Inhibition corresponds to Cn1cccc1C=C1C(=O)Nc2ccc(CCCl)cc21 [10717/G04] on MET?
10.9

Form: Entry = O=C1Nc2ccc(CCCl)cc2C1=Cc1ccccn1 [10729/G07] | System = MET | Met Kinase % Inhibition = ____
38.2

Quick check: Met Kinase % Inhibition on MET, item Cc1c(Br)ccc2c1C(=Cc1ccc(N(C)C)c3ccccc13)C(=O)N2 [10724/C02] ?
40.7

Tell me reported Met Kinase % Inhibition for O=C1Nc2ccc(S(=O)(=O)N3CCOCC3)cc2C1=Cc1cc(Br)cc(Br)c1O [10734/F07] , tested with MET.
95.7

What reported Met Kinase % Inhibition corresponds to Cc1cc2occ(C=C3C(=O)Nc4ccc(S(=O)(=O)N5CCOCC5)cc43)c(=O)c2cc1C [10731/F03] on MET?
40.6

* * *

# target_of_assay: EGFR (Homo sapiens, UniProt P00533)
# Construct: Add 7 ug A431 cell lysate per well (EGFR source); endogenous in cells; host or cells: A431
# Sequence (P00533 25-1210): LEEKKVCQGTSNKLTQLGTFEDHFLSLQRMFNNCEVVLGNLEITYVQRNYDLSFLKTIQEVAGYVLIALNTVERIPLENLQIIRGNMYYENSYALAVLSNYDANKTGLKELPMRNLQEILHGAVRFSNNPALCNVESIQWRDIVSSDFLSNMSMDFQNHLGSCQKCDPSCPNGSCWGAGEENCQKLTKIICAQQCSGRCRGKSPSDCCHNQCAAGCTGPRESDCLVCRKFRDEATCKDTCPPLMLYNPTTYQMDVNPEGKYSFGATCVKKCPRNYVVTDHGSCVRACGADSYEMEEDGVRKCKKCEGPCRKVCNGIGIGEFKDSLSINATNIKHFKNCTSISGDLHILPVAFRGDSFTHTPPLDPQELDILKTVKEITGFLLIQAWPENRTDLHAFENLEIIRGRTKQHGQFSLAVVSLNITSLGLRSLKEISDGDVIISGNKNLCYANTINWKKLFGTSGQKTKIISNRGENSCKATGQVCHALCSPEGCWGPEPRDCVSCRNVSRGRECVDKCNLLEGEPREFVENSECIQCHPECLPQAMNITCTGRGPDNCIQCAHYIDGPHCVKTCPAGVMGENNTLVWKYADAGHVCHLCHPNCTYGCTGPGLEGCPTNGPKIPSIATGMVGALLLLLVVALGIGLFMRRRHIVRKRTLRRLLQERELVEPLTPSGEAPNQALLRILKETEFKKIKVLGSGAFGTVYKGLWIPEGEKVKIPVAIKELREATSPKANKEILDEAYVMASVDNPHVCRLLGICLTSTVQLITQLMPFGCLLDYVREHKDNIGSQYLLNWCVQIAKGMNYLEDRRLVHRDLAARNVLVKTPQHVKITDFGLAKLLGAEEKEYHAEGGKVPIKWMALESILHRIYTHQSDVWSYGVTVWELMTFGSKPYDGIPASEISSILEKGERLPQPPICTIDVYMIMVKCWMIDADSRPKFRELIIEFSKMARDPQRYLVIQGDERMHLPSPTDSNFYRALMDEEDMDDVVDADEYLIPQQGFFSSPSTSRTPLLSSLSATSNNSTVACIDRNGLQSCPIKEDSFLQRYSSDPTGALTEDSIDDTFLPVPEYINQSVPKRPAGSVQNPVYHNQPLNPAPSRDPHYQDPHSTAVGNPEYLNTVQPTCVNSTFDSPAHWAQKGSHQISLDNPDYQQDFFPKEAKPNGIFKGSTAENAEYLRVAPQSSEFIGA
# protocol_summary: EGFR ELISA assay (in vitro kinase activity, EGFR captured from A431 cell lysate)
# Type: biochemical
# Parameters: concentration or dose not given beside the values
Readings of Biochem EGFR %Inhibition for the listed compounds
Kindly answer with a numeric value in %, unit omitted.

Would you please look over these solved cases?
1) Cc1[nH]c(C=C2C(=O)Nc3ccc(Br)c(C)c32)c(Br)c1Br = 67.3
2) COc1cc(O)ccc1C=C1C(=O)Nc2ccc(Br)c(C)c21 = 0.9
3) Cc1c(Br)ccc2c1C(=Cc1cc(C(C)C)c(O)c(C(C)C)c1)C(=O)N2 = -2.4

Please give the measured Biochem EGFR %Inhibition for this compound: Cc1c(Br)ccc2c1C(=Cc1ccc(C(C)(C)C)cc1)C(=O)N2
24.4

Given the compound COc1ccc(C=C2C(=O)Nc3ccc(I)cc32)cc1OC , what is its reported Biochem EGFR %Inhibition?
50.5

# input compound: CNS(=O)(=O)c1ccc2c(c1)C(=Cc1cccnc1)C(=O)N2 ; wanted: its Biochem EGFR %Inhibition
10.3

I have this compound here, Cc1c(Br)ccc2c1C(=Cc1ccccc1O)C(=O)N2 , and I need its recorded Biochem EGFR %Inhibition.
-15.3

What does the record list as Biochem EGFR %Inhibition for CN1C(=O)C(=C2C(=O)Nc3ccc(S(=O)(=O)Nc4ccc(C(F)(F)F)cc4)cc32)c2ccccc21 ?
25.1

Data request, read-out Biochem EGFR %Inhibition, for COc1ccc(C=C2C(=O)Nc3ccc(Br)c(C)c32)cc1C(C)(C)C
-22.8

Recorded Biochem EGFR %Inhibition of N#Cc1cccc(C=C2C(=O)Nc3ccc(I)cc32)c1 , please.
47.4

Quick check: Biochem EGFR %Inhibition of Cc1cc(C=C2C(=O)Nc3ccc(S(=O)(=O)Nc4ccc(C(F)(F)F)cc4)cc32)[nH]n1 ?
-5.5

* * *

# target_of_assay: FLK-1 receptor (Mus musculus, UniProt P35918)
# Construct: expressed in transfected cells; host or cells: NIH3T3 C7#3
# Sequence (P35918 20-1345): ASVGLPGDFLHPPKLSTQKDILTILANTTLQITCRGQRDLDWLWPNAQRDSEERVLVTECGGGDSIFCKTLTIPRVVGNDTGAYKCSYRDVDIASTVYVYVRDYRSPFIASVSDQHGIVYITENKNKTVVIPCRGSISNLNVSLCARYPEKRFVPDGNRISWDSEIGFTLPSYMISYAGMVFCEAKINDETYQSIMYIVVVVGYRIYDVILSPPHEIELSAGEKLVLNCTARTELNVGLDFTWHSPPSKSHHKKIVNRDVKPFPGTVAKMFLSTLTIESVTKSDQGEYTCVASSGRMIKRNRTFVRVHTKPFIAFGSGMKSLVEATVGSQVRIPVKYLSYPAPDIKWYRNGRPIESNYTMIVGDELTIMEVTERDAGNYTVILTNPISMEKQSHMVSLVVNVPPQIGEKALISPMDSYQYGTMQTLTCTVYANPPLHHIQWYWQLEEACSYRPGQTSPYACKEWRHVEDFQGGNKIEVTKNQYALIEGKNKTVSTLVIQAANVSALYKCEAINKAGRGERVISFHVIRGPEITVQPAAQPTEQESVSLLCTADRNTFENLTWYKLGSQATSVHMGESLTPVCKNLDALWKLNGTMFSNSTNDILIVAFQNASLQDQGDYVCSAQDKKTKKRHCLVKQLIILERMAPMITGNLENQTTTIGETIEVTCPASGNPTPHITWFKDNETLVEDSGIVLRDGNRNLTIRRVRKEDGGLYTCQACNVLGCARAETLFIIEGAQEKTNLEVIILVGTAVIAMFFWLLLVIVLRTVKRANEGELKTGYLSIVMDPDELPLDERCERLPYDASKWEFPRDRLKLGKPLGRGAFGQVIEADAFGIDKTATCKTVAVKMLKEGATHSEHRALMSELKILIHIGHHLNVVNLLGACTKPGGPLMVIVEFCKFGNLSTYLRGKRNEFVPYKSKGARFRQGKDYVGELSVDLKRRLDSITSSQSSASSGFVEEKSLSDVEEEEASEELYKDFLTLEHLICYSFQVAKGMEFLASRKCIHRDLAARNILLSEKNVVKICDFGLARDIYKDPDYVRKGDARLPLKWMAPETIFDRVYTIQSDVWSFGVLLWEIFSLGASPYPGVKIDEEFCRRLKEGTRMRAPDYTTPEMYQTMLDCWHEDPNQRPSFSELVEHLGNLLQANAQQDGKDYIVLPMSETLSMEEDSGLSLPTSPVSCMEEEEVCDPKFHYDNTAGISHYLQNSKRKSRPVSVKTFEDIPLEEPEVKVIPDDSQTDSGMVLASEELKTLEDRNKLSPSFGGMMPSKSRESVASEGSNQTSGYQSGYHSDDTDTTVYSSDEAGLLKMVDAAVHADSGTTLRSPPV
# protocol_summary: FLK-1 ELISA (kinase activity of the FLK-1 receptor in FLK-1/NIH3T3 cells, VEGF stimulated)
# Type: cell-based
# Fik Kinase %Inhibition annotations
Entry rule: numbers only, all in %.

1. O=C1Nc2ccc(S(=O)(=O)Nc3ccc(C(F)(F)F)cc3)cc2C1=Cc1cc(O)c(O)c(Br)c1 = 30.7
2. COc1c(Cl)cc(C=C2C(=O)Nc3ccc(S(=O)(=O)Nc4ccc(C(F)(F)F)cc4)cc32)cc1C(C)(C)C = 15.3
3. Cc1c(Br)ccc2c1C(=Cc1cc(Br)ccc1O)C(=O)N2 = -18.0
4. O=C1Nc2c(Br)cc(Br)cc2C1=Cc1cc2ccccc2nc1Cl = -2.9
5. Cc1c(Br)ccc2c1C(=Cc1ccc(O)c([N+](=O)[O-])c1)C(=O)N2 = -20.3
6. O=C1Nc2c(Br)cc(Br)cc2C1=Cc1ccccc1Sc1ccc(Cl)cc1 = 4.2
7. COc1cccc(OC)c1C=C1C(=O)Nc2c(Br)cc(Br)cc21 = -7.3
8. N#Cc1ccc(C=C2C(=O)Nc3ccc(I)cc32)cc1 = 6.7
9. CNS(=O)(=O)c1ccc2c(c1)C(=Cc1[nH]c(C)cc1C)C(=O)N2 = 3.9
10. CNS(=O)(=O)c1ccc2c(c1)C(=Cc1cccc(OC)c1OC)C(=O)N2 = 10.5

Given COC(=O)c1[nH]c(C)c(C=C2C(=O)Nc3ccc(I)cc32)c1C(=O)OC , state its recorded Fik Kinase %Inhibition.
17.7

Report Fik Kinase %Inhibition for Cc1cc2occ(C=C3C(=O)Nc4ccc(S(=O)(=O)Nc5ccc(C(F)(F)F)cc5)cc43)c(=O)c2cc1C please.
-1.4
